EXPERIMENTAL_TARGET: Human neutrophil collagenase (HNC) (Homo sapiens)
Sequence (P22894 101-467): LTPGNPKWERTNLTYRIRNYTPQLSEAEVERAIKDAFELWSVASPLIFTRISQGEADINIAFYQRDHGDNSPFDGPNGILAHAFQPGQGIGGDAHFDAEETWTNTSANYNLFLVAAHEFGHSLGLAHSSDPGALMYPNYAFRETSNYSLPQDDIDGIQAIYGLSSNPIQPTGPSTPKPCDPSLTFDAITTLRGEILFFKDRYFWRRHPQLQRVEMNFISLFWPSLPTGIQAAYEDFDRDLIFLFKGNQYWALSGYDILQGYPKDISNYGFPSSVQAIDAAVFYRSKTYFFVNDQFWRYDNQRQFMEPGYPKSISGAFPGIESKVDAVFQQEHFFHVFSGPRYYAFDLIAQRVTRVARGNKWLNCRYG
METHOD_DESCRIPTION: Human Neutrophil Collagenase Assay
ASSAY_CONDITIONS: fluorogenic peptide substrate, 96-well plate in duplicate; reference inhibitor
pKi: −log10 of the molar value.
ASSAY_READOUT: pKi

[[record]]
mol_smiles = "CCCCC[C@H](CC(=O)NO)C(=O)N[C@H](C(=O)N1CCC[C@H]1CO)C(C)C"
numeric_readout = 6.14


----------
EXPERIMENTAL_TARGET: Human fibroblast stromelysin (HFS) (Homo sapiens)
Sequence (P08254 100-477): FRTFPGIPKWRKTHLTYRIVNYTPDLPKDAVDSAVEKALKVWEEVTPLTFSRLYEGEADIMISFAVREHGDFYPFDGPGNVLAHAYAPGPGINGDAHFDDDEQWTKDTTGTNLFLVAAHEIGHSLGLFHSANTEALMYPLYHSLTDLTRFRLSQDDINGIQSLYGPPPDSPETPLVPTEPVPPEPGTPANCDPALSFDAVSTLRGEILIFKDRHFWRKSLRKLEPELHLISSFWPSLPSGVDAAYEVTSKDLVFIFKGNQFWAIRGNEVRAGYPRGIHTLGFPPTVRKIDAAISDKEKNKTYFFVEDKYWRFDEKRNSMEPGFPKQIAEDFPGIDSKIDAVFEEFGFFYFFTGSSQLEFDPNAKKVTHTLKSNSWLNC
pKi: −log10 of the molar value.
ASSAY_READOUT: pKi

[[record]]
mol_smiles = "CCCCC[C@H](CC(=O)NO)C(=O)N[C@H](C(=O)N1CCC[C@H]1CO)C(C)C"
experimental_target = "Human fibroblast stromelysin (HFS) (Homo sapiens)"
numeric_readout = 6.14

